B1: CCDC6 (parent)
chain: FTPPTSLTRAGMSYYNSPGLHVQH

# Variants of: B1
# protocol-summary: protein stability index of a GFP-peptide fusion (GPS, HEK-293T) (PSI 1-6); higher = more stable;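 note: lentivirally expressed fusions sorted by FACS into six bins by GFP to DsRed ratio, PSI derived from sequencing read proportions per bin multiplied by bin number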
# experimental-conditions: c terminus: a fixed tail appended
Recorded measurements of protein stability index, one per entry
readout: protein stability index

- mutation-annotation: "V22H"
  reported: 1.87
- mutation-annotation: "N16Y"
  reported: 1.77
- mutation-annotation: "G19C"
  reported: 1.98
- mutation-annotation: "P3K"
  reported: 2.78
- mutation-annotation: "T8L"
  reported: 1.78
- mutation-annotation: "H21D"
  reported: 1.47
- mutation-annotation: "T2M"
  reported: 2.6
- mutation-annotation: "A10P"
  reported: 1.91
- mutation-annotation: "S13M"
  reported: 1.34
- mutation-annotation: "P3T"
  reported: 2.35
- mutation-annotation: "P4A"
  reported: 1.15
- mutation-annotation: "F1G"
  reported: 2.54
- mutation-annotation: "P18Q"
  reported: 2.16
- mutation-annotation: "G19K"
  reported: 2.27
- mutation-annotation: "P18C"
  reported: 1.21
- mutation-annotation: "L20A"
  reported: 2.14
- mutation-annotation: "M12P"
  reported: 2.56
- mutation-annotation: "M12H"
  reported: 2.33
- mutation-annotation: "P3A"
  reported: 1.73
- mutation-annotation: "T5N"
  reported: 1.81
- mutation-annotation: "F1N"
  reported: 2.88
- mutation-annotation: "M12D"
  reported: 2.19
